The values you see were collected from paper PMC4122495.

test system: L. monocytogenes; assay: L. monocytogenes intracellular growth assay in RAW264.7 macrophages; assay type: cell-based, Listeria monocytogenes 10403S; conditions: conditions of Figure 2B and Figure 5B, maximal effective drug concentration used; 8 h post-infection; vs DMSO
Just a reminder that ties go to false (0): only Decrease intracellular listeria viability (%) strictly below 40% counts as true (1).

Illustrative cases are given below, each with its answer.
In: I'd appreciate it if you could check whether CCCC(NC(=O)/C(C#N)=C/c1nc(Cl)ccc1Cl)c1ccc(OCCN2CCOCC2)cc1 (centres unmarked) has Decrease intracellular listeria viability (%) smaller than 40%.
Out: false (0)

In: Say whether its Decrease intracellular listeria viability (%) is strictly beneath 40%. Entry: CCC[C@@H](NC(=O)/C(C#N)=C/c1cccc(Br)n1)c1ccccc1
Out: false (0)

In: Decrease intracellular listeria viability (%) under 40%? Item: CCC[C@H](NC(=O)/C(C#N)=C/c1cccc(Cl)n1)c1ccccc1
Out: false (0)

We next turn to a different compound, shown below.
In: Confirm or reject: Decrease intracellular listeria viability (%) of CCC[C@H](NC(=O)/C(C#N)=C/c1cccc(F)n1)c1ccccc1 lies strictly below 40%
Out: true (1)

----------
assay: Aqueous kinetic solubility; assay type: physicochemical; conditions: aqueous (not further specified)
outcomeMeasure: solubility kinetic (µM)
Your answer should be a plain number; it is taken to be in µM.

In: Recorded solubility kinetic of CCC[C@H](NC(=O)/C(C#N)=C/c1cccc(Br)n1)c1ccccc1 [WP1130, reference compound] , please.
Out: 3.2
